# Tested Target: Grb2 SH2 (UniProt P62993)
# Sequence (P62993 whole entry, looked up, the tested form may be a part): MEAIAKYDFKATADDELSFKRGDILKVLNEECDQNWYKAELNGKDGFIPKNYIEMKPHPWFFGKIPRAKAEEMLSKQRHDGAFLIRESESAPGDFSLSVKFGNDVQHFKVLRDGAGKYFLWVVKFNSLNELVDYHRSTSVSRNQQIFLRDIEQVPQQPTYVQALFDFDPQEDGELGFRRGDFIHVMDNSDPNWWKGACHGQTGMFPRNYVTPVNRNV
# Experiment Description: SH2 binding enrichment of the phosphorylated peptide, bacterial display (enrichment ratio); higher = better substrate or ligand; peptides without Tyr show the background;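 also: peptide library displayed on the E. coli surface as eCPX fusions, selected cells deep-sequenced, score is each peptide's frequency after selection divided by its frequency in the input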
Quantity Measured: SH2 binding enrichment
Output spec: single numeric token, no unit.

Consider the following illustrative entries.
[
  {
    "Residue Sequence": "KWTVDYLSQVG [TYW5_Y48]",
    "SH2 binding enrichment": 0.886
  },
  {
    "Residue Sequence": "VYSSDYFSFVL [USP24_Y2138]",
    "SH2 binding enrichment": 0.798
  },
  {
    "Residue Sequence": "AAYNKYDQERF [CDC73_Y293_R292K]",
    "SH2 binding enrichment": 0.923
  }
]

Problem: Item: SQPASYQRRLL [PPIG_Y320] Test system: Grb2 SH2 (UniProt P62993) Read-out: SH2 binding enrichment Value: ?
Solution: 0.729
